TEST_SYSTEM: UniProt:P35372
Sequence (P35372 whole entry): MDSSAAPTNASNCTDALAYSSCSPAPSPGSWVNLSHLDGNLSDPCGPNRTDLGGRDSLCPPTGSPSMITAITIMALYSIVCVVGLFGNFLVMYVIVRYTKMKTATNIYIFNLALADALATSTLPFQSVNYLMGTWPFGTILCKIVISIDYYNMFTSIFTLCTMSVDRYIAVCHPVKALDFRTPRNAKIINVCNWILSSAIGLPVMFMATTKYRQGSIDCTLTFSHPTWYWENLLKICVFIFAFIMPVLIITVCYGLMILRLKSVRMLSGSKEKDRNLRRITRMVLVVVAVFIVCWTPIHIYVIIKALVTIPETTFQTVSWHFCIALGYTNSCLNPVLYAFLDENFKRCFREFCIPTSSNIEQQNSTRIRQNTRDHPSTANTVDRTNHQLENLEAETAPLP
EXPERIMENT: OPRMu1 Discover X β-arrestin Assay, antagonist mode (U2OS cells, DAMGO EC80 challenge)
QUANTITY_NAME: IC50

SMILES: CCc1cc(F)c2nc(N3CCN(C(=O)C4CN(C)C4)C[C@H]3C)c(-c3nc(C)no3)c(C)c2c1
QUANTITY_NAME: IC50
VALUE: > 1000 nM

SMILES: CCc1cc(F)c2nc(N3CCN(C(=O)[C@H](C(C)C)N4CCCC4)C[C@H]3C)c(-c3nc(C)no3)c(C)c2c1
QUANTITY_NAME: IC50
VALUE: > 1000 nM

Looking up `CCc1cc(F)c2nc(N3CC[C@H](N[C@@H]4CCOC4)C[C@@H]3C)c(-c3ccn(C)n3)c(C)c2c1` , I found its IC50 recorded as 100 to 1000 nM

Looking up `CCc1cc(F)c2nc(N3CCC(N[C@H]4CCOC[C@@H]4O)CC3)c(-c3cc(C)n(C)n3)c(C)c2c1` , I found its IC50 recorded as 100 to 1000 nM

Looking up `CCc1cc(F)c2nc(N3CC[C@@H](N[C@@H]4CCOC4)C[C@@H]3C)c(-c3cc(C)no3)c(C)c2c1` , I found its IC50 recorded as > 1000 nM

Looking up `CCc1cc(F)c2nc(N3CC[C@@H](N[C@@H]4CCOC4)[C@H](C)C3)c(-c3ccn(C)n3)c(C)c2c1` , I found its IC50 recorded as > 1000 nM

Looking up `CCc1cc(F)c2nc(N3CCN(C(=O)CCN4CCCC4)C[C@H]3C)c(-c3nc(C)no3)c(C)c2c1` , I found its IC50 recorded as 100 to 1000 nM

Looking up `CCc1cc(-c2ccnn2C)c2nc(N3CCN(CC4CCOCC4)C[C@H]3C)c(-c3ccn(C)n3)c(C)c2c1` , I found its IC50 recorded as 100 to 1000 nM

###

TEST_SYSTEM: kappa opioid receptor (KOR) (Homo sapiens, UniProt P41145)
Sequence (P41145 whole entry): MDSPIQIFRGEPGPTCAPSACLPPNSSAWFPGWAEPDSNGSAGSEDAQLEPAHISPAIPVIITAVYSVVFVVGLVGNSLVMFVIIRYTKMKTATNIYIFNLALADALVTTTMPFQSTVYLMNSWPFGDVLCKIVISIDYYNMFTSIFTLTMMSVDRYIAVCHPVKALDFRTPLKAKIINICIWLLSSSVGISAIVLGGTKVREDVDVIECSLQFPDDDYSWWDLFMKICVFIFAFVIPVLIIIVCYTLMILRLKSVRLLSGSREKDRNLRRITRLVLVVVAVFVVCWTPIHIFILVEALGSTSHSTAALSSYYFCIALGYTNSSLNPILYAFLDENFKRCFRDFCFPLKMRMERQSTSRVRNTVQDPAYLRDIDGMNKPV
EXPERIMENT: OPRKappa 1 Tango B-Arrestin Assay, antagonist mode (Tango OPRK1-bla U2OS cells, U50488 EC80 challenge)
CONDITION_SUMMARY: antagonist mode, Tango OPRK1-bla U2OS cells, 6 nM U50488 challenge
QUANTITY_NAME: IC50

In the examples that follow, each entry is paired with its recorded IC50.
SMILES: CCc1cc(F)c2nc(N3CCN(C(=O)[C@@H]4C[C@@H](O)CN4C)C[C@H]3C)c(-c3nc(C)no3)c(C)c2c1
IC50: 10 to 100 nM

SMILES: CCc1cc(F)c2nc(N3CC[C@H](N[C@@H]4CCOC4)[C@@H](C)C3)c(-c3ccn(C)n3)c(C)c2c1
IC50: 1 to 10 nM

SMILES: CCc1cc(F)c2nc(N3CCN(C[C@H]4CCOC4)C[C@H]3C)c(-c3nc(C)no3)c(C)c2c1
IC50: 1 to 10 nM

From here, focus on the item given below.
Looking up `CCc1cc(-c2cc(C)nn2C)c2nc(N3CC[C@H](NC4CCOCC4)[C@H](F)C3)c(-c3ccn(C)n3)c(C)c2c1` , I found its IC50 recorded as 1 to 10 nM

Origin of measurements: patent US20260115185A1
